Reference for the values: patent US20240409585A1

# IC50 per record follows
biological target: PE-labeled human PD-L1-Ig binding to Jurkat cell line over-expressing human PD-1 (Jurkat-PD-1) (Homo sapiens); construct: expressed in transfected cells; host or cells: Jurkat; experiment: Jurkat-PD-1 Cell Binding High-Content Screening Assay (CBA): Method 1; details: Jurkat-hPD-1 cells, PE-labeled PD-L1-Ig 20 nM final; read-out: Jurkat HPDL1 PD1 IC50 (uM) (Method 1)
Sequence (Q15116 25-288): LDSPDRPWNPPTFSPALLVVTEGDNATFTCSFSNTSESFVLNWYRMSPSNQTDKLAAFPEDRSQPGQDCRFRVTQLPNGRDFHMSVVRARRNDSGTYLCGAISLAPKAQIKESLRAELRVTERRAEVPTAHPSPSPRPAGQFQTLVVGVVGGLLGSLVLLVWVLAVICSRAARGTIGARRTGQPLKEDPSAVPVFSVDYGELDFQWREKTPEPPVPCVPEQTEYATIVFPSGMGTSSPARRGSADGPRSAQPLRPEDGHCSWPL
Bridge positions count the residues as written; N and C are the ends. Square brackets hold non-standard residues; d marks the D form. Peptide text beside a SMILES is read from it. ξ: configuration not given here. Bip = N[C@@H](Cc1ccc(-c2ccccc2)cc1)C(=O)O; dNva = CCC[C@@H](N)C(=O)O; ξTle = CC(C)(C)C(N)C(=O)O; NMeA = CN[C@@H](C)C(=O)O; Dab = NCC[C@H](N)C(=O)O

Compound: CCC[C@H]1NC(=O)[C@H](C)N(C)C(=O)[C@H](C(C)C)NC(=O)[C@H](Cc2ccc(-c3ccccc3)cc2)NC(=O)[C@H](CC(C)C)NC(=O)[C@H](Cc2c[nH]c3ccccc23)NC(=O)[C@H](CC(=O)O)NC(=O)[C@H](Cc2ccc(O)cc2)NC(=O)[C@H](Cc2ccccc2)NC(=O)CSC[C@@H](C(=O)N[C@@H](C)C(N)=O)NC(=O)[C@H](CO)NC(=O)[C@H](C(C)C)NC(=O)[C@H](CC(C)C)NC(=O)[C@H](CC(N)=O)NC1=O [Compound 1755] ({CH2CO}-FYDWL[Bip]V[NMeA][dNva]NLVSCA-NH2; thioether N-14)
Unit Of Measure: µM
IC50: 0.03
--
Compound: CC(C)C[C@@H]1NC(=O)[C@H](Cc2c[nH]c3ccccc23)NC(=O)[C@H](CC(=O)O)NC(=O)[C@H](Cc2ccc(O)cc2)NC(=O)[C@H](Cc2ccccc2)NC(=O)CSC[C@@H](C(=O)N[C@@H](C)C(N)=O)NC(=O)[C@H]([C@@H](C)O)NC(=O)[C@H](C(C)C)NC(=O)[C@H](CC(C)C)NC(=O)[C@H](CCN)NC(=O)[C@@H](C)NC(=O)[C@H](C)N(C)C(=O)[C@H](C(C)C)NC(=O)[C@H](Cc2ccc(-c3ccccc3)cc2)NC1=O [Compound 1478] ({CH2CO}-FYDWL[Bip]V[NMeA][dA][Dab]LVTCA-NH2; thioether N-14)
Unit Of Measure: µM
IC50: 0.02
--
Compound: CC(C)C[C@@H]1NC(=O)[C@H](CCN)NC(=O)[C@@H](CC(C)C)NC(=O)[C@H](C)N(C)C(=O)[C@H](C(C)C)NC(=O)[C@H](Cc2ccc(-c3ccccc3)cc2)NC(=O)[C@H](C(C)C)NC(=O)[C@H](Cc2c[nH]c3ccccc23)NC(=O)[C@H](CC(=O)O)NC(=O)[C@H](Cc2ccc(O)cc2)NC(=O)[C@H](Cc2cnc[nH]2)NC(=O)CSC[C@@H](C(=O)N[C@@H](C)C(N)=O)NC(=O)[C@H]([C@@H](C)O)NC(=O)[C@H](C(C)C)NC1=O [Compound 1358] ({CH2CO}-HYDWV[Bip]V[NMeA][dL][Dab]LVTCA-NH2; thioether N-14)
Unit Of Measure: µM
IC50: 0.01
--
Compound: CC(C)C[C@@H]1NC(=O)[C@H](Cc2c[nH]c3ccccc23)NC(=O)[C@H](CC(=O)O)NC(=O)[C@H](Cc2ccc(O)cc2)NC(=O)[C@H](Cc2ccccc2)NC(=O)CSC[C@@H](C(=O)N[C@@H](C)C(N)=O)NC(=O)[C@H](CO)NC(=O)[C@H](C(C)C)NC(=O)[C@H](CC(C)C)NC(=O)[C@H](CC(=O)O)NC(=O)C(C(C)(C)C)NC(=O)[C@H](C)N(C)C(=O)[C@H](C(C)C)NC(=O)[C@H](Cc2ccc(-c3ccccc3)cc2)NC1=O (stereo partly shown) [Compound 1827] ({CH2CO}-FYDWL[Bip]V[NMeA][ξTle]DLVSCA-NH2; thioether N-14)
Unit Of Measure: µM
IC50: 0.79
